target: Recombinant human calpain I (Homo sapiens); construct: made in house; assay: Inhibition of cysteine protease activity: calpain I, Succ-Leu-Tyr-MNA substrate hydrolysis; type: biochemical; settings: Table 4, α-ketoamides
Sequence (P07384 whole entry): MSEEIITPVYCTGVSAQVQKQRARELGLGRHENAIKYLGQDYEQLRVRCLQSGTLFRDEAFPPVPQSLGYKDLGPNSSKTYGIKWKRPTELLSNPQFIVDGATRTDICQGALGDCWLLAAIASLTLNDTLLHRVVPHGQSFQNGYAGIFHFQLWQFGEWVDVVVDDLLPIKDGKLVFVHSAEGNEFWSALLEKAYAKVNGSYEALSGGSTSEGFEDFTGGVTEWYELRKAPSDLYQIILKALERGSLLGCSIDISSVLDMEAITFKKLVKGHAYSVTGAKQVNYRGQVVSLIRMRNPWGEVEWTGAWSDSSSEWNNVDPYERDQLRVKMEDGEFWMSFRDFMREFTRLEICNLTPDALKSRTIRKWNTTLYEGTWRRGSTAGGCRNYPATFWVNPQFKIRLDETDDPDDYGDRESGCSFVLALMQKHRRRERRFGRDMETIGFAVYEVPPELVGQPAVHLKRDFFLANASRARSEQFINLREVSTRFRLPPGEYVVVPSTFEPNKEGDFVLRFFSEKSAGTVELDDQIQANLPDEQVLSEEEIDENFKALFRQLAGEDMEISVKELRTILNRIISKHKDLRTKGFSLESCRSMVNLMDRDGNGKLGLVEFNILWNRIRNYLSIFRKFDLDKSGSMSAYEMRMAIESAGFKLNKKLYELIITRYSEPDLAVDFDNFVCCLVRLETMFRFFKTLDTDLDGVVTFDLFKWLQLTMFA
Sequence (P04632 whole entry partner): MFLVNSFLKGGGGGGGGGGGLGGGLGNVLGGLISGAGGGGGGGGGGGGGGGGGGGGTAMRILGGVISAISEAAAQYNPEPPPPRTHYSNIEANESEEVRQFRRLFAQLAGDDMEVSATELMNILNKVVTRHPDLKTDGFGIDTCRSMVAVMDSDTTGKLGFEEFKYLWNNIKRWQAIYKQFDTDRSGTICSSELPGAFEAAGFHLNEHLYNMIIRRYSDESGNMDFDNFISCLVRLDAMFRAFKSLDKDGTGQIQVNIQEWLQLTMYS
I'd appreciate it if you could supply pIC50 values for the items below.
Numbers only, as −log10 of the molar value.

> print(dat)
                                   compound                               test.target  property.name  observed.measurement
1  CS(=O)(=O)NC(COCc1ccccc1)C(=O)NC(Cc1ccccc1)C(=O)C(=O)NC1CCN(S(=O)(=O)c2ccc(-c3ccccn3)s2)CC1 (mixture of isomers)  Recombinant human calpain I (Homo sapiens)          pIC50                  7.64
2  CN(C)c1cccc2c(S(=O)(=O)NCCNC(=O)C(=O)[C@H](Cc3ccccc3)NC(=O)[C@@H](COCc3ccccc3)NS(C)(=O)=O)cccc12  Recombinant human calpain I (Homo sapiens)          pIC50                  7.31
3  CC(=O)c1cccc(-c2ccc(S(=O)(=O)NCCNC(=O)C(=O)C(Cc3ccccc3)NC(=O)C(COCc3ccccc3)NS(C)(=O)=O)s2)c1 (mixture of isomers)  Recombinant human calpain I (Homo sapiens)          pIC50                  8.00
4  CS(=O)(=O)N[C@H](Cc1ccccc1)C(=O)N[C@@H](Cc1ccccc1)C(=O)C(=O)NCCNS(=O)(=O)c1ccc(-c2ccccn2)s1  Recombinant human calpain I (Homo sapiens)          pIC50                  7.74

Field: next compound
Quick check: pIC50 on Recombinant human calpain I (Homo sapiens), item `CS(=O)(=O)N[C@H](COCc1ccccc1)C(=O)N[C@@H](Cc1ccccc1)C(=O)C(=O)NCCNS(=O)(=O)c1ccc(-c2cccc(CN3CCC3)c2)s1` ? 7.36
